- experiment_notes: recombinant UMI read abundance after kanamycin selection (control-corrected) (log10(CPM+1)); higher = more efficient recombination; extreme values may be limits of the assay; sequences stand for … in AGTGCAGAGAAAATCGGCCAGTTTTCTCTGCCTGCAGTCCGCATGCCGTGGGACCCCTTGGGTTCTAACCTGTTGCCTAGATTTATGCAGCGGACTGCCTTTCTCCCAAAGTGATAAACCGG…AGGTTGGTTTCACT; site = the 11-nt donor;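 also: IS621 bridge recombinase in Escherichia coli cells against a fixed T5 target plasmid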

>  <residue_sequence>
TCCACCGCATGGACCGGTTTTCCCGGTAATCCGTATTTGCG (site GCCACCGCTCG)

>  <recombinant UMI read abundance (log10)>
0.0147

$$$$
>  <residue_sequence>
CTAGTAGCATGGACCGGTTTTCCCGGTAATCCGTATTTGCC (site CTAGTATCTGT)

>  <recombinant UMI read abundance (log10)>
0

$$$$
>  <residue_sequence>
TAGGGATCATGGACCGGTTTTCCCGGTAATCCGTATTTGCG (site TAGGGATCTCG)

>  <recombinant UMI read abundance (log10)>
2.78

$$$$
>  <residue_sequence>
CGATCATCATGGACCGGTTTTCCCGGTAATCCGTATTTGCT (site CGATACTCTAG)

>  <recombinant UMI read abundance (log10)>
0

$$$$
>  <residue_sequence>
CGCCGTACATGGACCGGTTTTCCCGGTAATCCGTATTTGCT (site CGCCGTACTGG)

>  <recombinant UMI read abundance (log10)>
0

$$$$
